target: muscarinic M1 (Homo sapiens, UniProt P11229); assay: Radioligand displacement, [3H]NMS; conditions: Ki [nM ± SD]
Sequence (P11229 whole entry): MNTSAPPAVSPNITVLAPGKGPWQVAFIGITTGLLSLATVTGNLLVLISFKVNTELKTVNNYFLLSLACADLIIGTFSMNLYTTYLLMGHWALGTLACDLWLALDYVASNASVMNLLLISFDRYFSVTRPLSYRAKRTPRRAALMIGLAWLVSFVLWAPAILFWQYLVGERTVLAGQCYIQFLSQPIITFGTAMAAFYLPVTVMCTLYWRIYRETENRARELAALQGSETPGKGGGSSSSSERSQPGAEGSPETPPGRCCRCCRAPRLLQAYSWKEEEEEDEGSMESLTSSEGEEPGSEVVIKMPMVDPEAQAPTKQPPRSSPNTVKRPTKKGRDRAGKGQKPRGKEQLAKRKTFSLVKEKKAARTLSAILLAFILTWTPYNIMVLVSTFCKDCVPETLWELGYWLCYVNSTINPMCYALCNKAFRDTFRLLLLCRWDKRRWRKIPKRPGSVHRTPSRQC
measurement_name: Ki (nM)
Please state the figure in nM; there is no need to write the unit.

Form field Ki, entry COc1ccccc1OCCNCCCOc1ccc2c(c1)NC(=O)CO2 : 10000

---

molecular target: 5-HT1BR (Homo sapiens, UniProt P28222); assay: BRET Gαi1 activation
Sequence (P28222 whole entry): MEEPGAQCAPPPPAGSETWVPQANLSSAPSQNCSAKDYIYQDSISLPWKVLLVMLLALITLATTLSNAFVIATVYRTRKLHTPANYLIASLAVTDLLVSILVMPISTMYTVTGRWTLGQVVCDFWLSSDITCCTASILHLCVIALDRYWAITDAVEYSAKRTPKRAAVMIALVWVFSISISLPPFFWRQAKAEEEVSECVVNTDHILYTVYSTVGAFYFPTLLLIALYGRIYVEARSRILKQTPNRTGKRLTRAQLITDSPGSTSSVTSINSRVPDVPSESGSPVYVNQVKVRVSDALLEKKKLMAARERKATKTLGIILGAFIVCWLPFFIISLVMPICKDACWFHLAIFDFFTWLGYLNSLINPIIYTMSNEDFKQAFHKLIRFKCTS
measurement_name: pEC50
Just the number, please; pEC50 means minus log10 of the concentration in mol/L.

Form field pEC50, entry COc1ccccc1OCCNCCCOc1ccc2c(c1)NC(=O)CO2 [ST171] : 8.43

---

molecular target: 5-HT1AR Q97^2.65A (Homo sapiens, UniProt P08908, Q97A); assay: Radioligand competition, displacement of [3H]WAY100635; format: binding; conditions: 5-HT1AR Q97A; HEK 293T membranes; read-out: Ki [nM ± SEM]
Sequence (P08908 whole entry Q97A): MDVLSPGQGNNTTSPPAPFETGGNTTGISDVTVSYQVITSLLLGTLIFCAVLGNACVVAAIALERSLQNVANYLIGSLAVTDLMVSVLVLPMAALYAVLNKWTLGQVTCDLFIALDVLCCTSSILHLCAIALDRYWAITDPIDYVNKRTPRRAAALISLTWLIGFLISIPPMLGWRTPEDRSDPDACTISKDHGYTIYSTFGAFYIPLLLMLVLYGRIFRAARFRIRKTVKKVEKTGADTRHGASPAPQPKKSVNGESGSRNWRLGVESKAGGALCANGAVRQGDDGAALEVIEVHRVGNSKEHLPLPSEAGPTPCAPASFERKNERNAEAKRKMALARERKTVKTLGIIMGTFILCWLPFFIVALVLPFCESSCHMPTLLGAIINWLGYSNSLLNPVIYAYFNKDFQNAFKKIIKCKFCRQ
measurement_name: Ki
Value and unit, in that order.

Form field Ki, entry COc1ccccc1OCCNCCCOc1ccc2c(c1)NC(=O)CO2 : 63 nM

Value source: paper PMC12175894
